target: HCV NS3/4A protease genotype 1b (Hepatitis C virus genotype 1b, UniProt P26663); experiment: HCV NS3/4A protease time-resolved fluorescence (TRF) assay, Ki against genotype 1b; assay type: biochemical; conditions: IC50 [gt-1b] (nM), NS3/4A genotype 1b, enzyme 0.2 nM; HCOOH salt
PROPERTY: IC50
# answer = value followed by unit

# annotated cases, reported IC50 shown
COc1ccc2c3c(c(C4CC4)nc2c1)O[C@]1(CC3)C[C@H]2C(=O)N[C@]3(C(=O)NS(=O)(=O)C4(C)CC4)C[C@H]3/C=C\CCCCC[C@H](NC(=O)OCCF)C(=O)N2C1 ... 1.05 nM
COc1ccc2c3c(c(C4CC4)nc2c1)O[C@]1(CC3)C[C@H]2C(=O)N[C@]3(C(=O)NS(=O)(=O)C4(C)CC4)C[C@H]3/C=C\CCCCC[C@H](NC(=O)Oc3ccc(C)cc3)C(=O)N2C1 ... 0.832 nM

// Input: Cc1nc2ccccc2c2c1O[C@]1(CC2)C[C@H]2C(=O)N[C@]3(C(=O)NS(=O)(=O)C4(C)CC4)C[C@H]3/C=C\CCCCC[C@H](NC(=O)NC3CCCCC3)C(=O)N2C1 . Output its IC50 only.
0.002 nM
